B1: HDV Ribozyme (parent)
chain: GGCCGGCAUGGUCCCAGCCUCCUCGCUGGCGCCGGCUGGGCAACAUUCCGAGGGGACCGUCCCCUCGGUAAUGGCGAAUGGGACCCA

Variants of: B1
test_protocol: self-cleavage, relative activity (ratio to wild type); higher = more cleavage; co-transcriptional
property: self-cleavage

In [3]: df
Out[3]:
      variant  assay_result
 0  C62A A87G         0.867
 1  C18U U23A         0.519
 2   A8C A87C         0.805
 3   A8C G10C         0.623
 4  U27G C33G         0.104
 5  C15G G52C          0.95
 6  C49G C84A         0.652
 7  G11A A45U         0.222
 8  A78G A87G         0.658
 9  U46C C58U           0.7
10  G17C G54A         0.262
11  U12C G74U        0.0692
12  U27G G52A          1.02
13  C18U U79G         0.119
14  C21G G80C         0.177
15  G11C U47A         0.151
16  C64U A83G          1.02
17  C49G C75U         0.201
18  C48U G80A         0.297
19  A42G G68C         0.271
20  C57U G81U         0.353
21   U9C G73A         0.675
22  G54A G59A          1.01
